- Assay: p53 small molecule agonists, cell-based qHTS assay with human liver microsomes: qHTS cell viability counter screen (AID 1963579); note: potency is the fitted concentration of half-maximal effect; nearly all actives have a fitted effect of over 45% in size
- Condition: p53RE-bla HCT-116 viability, ATP luminescence, 16 h, HLM; series mostly up to 66 µM
Inconclusive results are not listed. Calls of active or inactive are those of the source. Calls come from the whole dose curve.
Assay metric: Potency

[Q] Fill in: Potency of NS(=O)(=O)c1cc2c(cc1Cl)NC(C1CC3C=CC1C3)NS2(=O)=O (centres undefined) is ___
[A] 3.97 µM (active)

[Q] Fill in: Potency of N#CCc1cccc(C(F)(F)F)c1 is ___
[A] 40.8 µM (active)

[Q] Fill in: Potency of CC(C)CCCCCCc1ccc(O)cc1 is ___
[A] 41.5 µM (active)

[Q] Fill in: Potency of CCCCC(CC)COC(=O)c1ccc(O)cc1 (centres undefined) is ___
[A] 40.8 µM (active)
